Assay: blockers of ER-stress CHOP reporter expression – cell-based, unfolded protein response, luciferase reporter, primary screen (AID 2732);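 further: 0% = tunicamycin plus vehicle and 100% = wells without tunicamycin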
Conditions: CHO-K1 CHOP-promoter luciferase, tunicamycin-induced, 15-18 h; at 10 µM; active compounds read high
Hit rate of the full screen: of about 220,000 compounds, about 8,200 (3.7%) were called active. This is one part of a sample in which actives are shown more often than they occur.
# cutoff 70% applies to inhibition; >= gives satisfied, < gives not satisfied

Here's what some known entries look like.
compound="Cc1cc(C)c2cc(CN(Cc3cccs3)Cc3nnnn3CC3CCCO3)c(=O)[nH]c2c1 (configuration not stated)" discrete_label=satisfied
compound=O=S(=O)(c1ccc(Br)cc1)c1nc(-c2ccccc2)oc1NCc1cccnc1 discrete_label=satisfied
compound=CCOc1ccc(Cn2c(SCCCCC#N)nc3c2c(=O)n(C)c(=O)n3C)cc1OCC discrete_label="not satisfied"

Decide: inhibition of CCCCSc1nnc2c(n1)OC=Nc1ccccc1-2 >= 70%?
not satisfied

Please indicate if the recorded inhibition for O=C(c1[nH]ncc1-c1ccc(Cl)cc1)C1CO1 (configuration not stated) meets or exceeds 70%.
not satisfied

hey, is inhibition for this one >= 70%? COc1cc(OC)c(OC)cc1/C=N/Nc1ncnc2c1[nH]c1ccc(C)cc12
not satisfied

Does inhibition meet or surpass 70% for N#CCCCn1c(O)c(N=NC(=O)C(O)c2ccccc2)c2ccccc21 (configuration not stated) ?
not satisfied

Tell me whether inhibition is at least 70% here: Cc1noc(C)c1COC(=O)COc1ccc(-c2ccccc2)cc1
not satisfied

====

This section presents compounds with their documented inhibition values.
Experiment: blockers of ER-stress CHOP reporter expression – cell-based, unfolded protein response, luciferase reporter, primary screen (AID 2732);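 further: 0% = tunicamycin plus vehicle and 100% = wells without tunicamycin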
Conditions: CHO-K1 CHOP-promoter luciferase, tunicamycin-induced, 15-18 h; at 10 µM; active compounds read high
The whole screen tested about 220,000 compounds, of which about 8,200 (3.7%) were called active. For the sample, actives were picked, then their nearest neighbours and some compounds at random.
The figure you give is taken to be in %; do not add the unit.

Illustrative cases are given below, each with its answer.
compound=O=C(Nc1nnc(-c2ccco2)o1)c1ccc(S(=O)(=O)N2CCOCC2)cc1 experimental_value=13.2
compound=CCOC(=O)c1sc(NC(=O)CSc2nnc(-c3ccco3)o2)c(C(=O)OCC)c1C experimental_value=19.2
compound=CC(C)NC(=O)NNc1c(Cl)cncc1Cl experimental_value=5.99
compound=Cn1c(SCC(=O)N/N=C/c2ccc(O)c(O)c2)nc2ccccc21 experimental_value=-4.19
compound="Cn1c(CC2Sc3ccccc3NC2=O)nnc1SCC(=O)c1ccc(Cl)cc1 (stereo not given)" experimental_value=11.3
compound=CCOC(=O)c1c(NC(=O)CSc2nnc(Cc3csc(N)n3)n2C)sc(C)c1C experimental_value=4.17
compound="CNCC(O)c1ccc(O)c(O)c1 (stereo not given)" experimental_value=-0.79
compound=Cc1cc(C)nc(S/C=C/C(=O)c2ccccc2)n1 experimental_value=24.8

Reported inhibition for COc1cc2c(cc1OC)C(/C=C/c1ccco1)=NCC2 was 1.07

// field: inhibition; key: Cc1ccc(S(=O)(=O)NCCSc2ccccc2)cc1[N+](=O)[O-] ; value = 33.3

For this compound ( COc1cccc(C2c3[nH]c4ccccc4c3CCN2Cc2cccc(C)n2)c1 (stereo not given) ), measured inhibition is 8.45

Quick note, inhibition for CCN(CC)S(=O)(=O)c1ccc2nc(COC(=O)c3n[nH]c4ccccc34)[nH]c2c1 landed at 104

get_value(item= COC(C[C@H](O)CC(=O)COCc1ccccc1)OC , readout=inhibition) returns 17.8

Input CCOC(=O)c1c(NC(=O)CSc2nnc(CNc3ccc(C)cc3C)o2)sc(C)c1C . Output inhibition: 80.7

The compound C[C@H](NC(=O)c1nc[nH]c1C(=O)N[C@@H](C)C(=O)OC(C)(C)C)C(=O)OC(C)(C)C showed inhibition equal to 1.44

For reference, reported inhibition for CSc1nc(-c2ccccc2)nc(C(Cl)Cl)n1 stands at 102

Just so you know, measured inhibition for Cc1cc(C)cc(OCc2nnc(SCC(=O)OC3CCCCC3)o2)c1 came out at 25.7

Looking up O=[N+]([O-])c1ccc2nc(-c3ccccn3)[nH]c2c1 , I found its inhibition recorded as -8.07

inhibition measured on O=C(Nc1ccc(S(=O)(=O)Nc2nccs2)cc1)c1cccc(S(=O)(=O)N2CCOCC2)c1 = -32.6

Reference for the values: PubChem BioAssay AID2732
